# Organism: Homo sapiens
# protocol_description: 25-hydroxyvitamin D3-1-hydroxylase activity (10e-6 M) was measured as %control
measured_attribute: Control (%)

A: C=C1/C(=C\C=C2/CCC[C@]3(C)[C@@H]([C@H](C)Cc4cccc(C(C)(C)O)c4)CC[C@@H]23)C[C@@H](O)C[C@@H]1O
B: C=C1/C(=C\C=C2/CCC[C@]3(C)[C@@H]([C@H](C)CCCC(C)(C)O)CC[C@@H]23)C[C@@H](O)C[C@@H]1O
Asked: Please indicate which has the smaller reported Control: A , or B . Please identify the chosen entry by its label.
Given back: B

====

# Test system: Vitamin D3 receptor (Gallus gallus)
# protocol_description: Relative competitive index values for binding to 1,25(OH)2D3 receptor of chick intestine
measured_attribute: RCI

{"columns": ["input_smiles", "system_tested", "RCI"],
 "data": [
  ["C=C1/C(=C\\C=C2/CCC[C@]3(C)[C@@H]([C@H](C)Cc4ccc(O)cc4)CC[C@@H]23)C[C@@H](O)C[C@@H]1O", "Vitamin D3 receptor (Gallus gallus)", 5],
  ["C=C1/C(=C\\C=C2/CCC[C@]3(C)[C@@H]([C@H](C)Cc4cccc(C)c4)CC[C@@H]23)C[C@@H](O)C[C@@H]1O", "Vitamin D3 receptor (Gallus gallus)", 1.4]
]}

A: C=C1/C(=C\C=C2/CCC[C@]3(C)[C@@H]([C@H](C)Cc4cccc(C(C)(C)O)c4)CC[C@@H]23)C[C@@H](O)C[C@@H]1O
B: C=C1/C(=C\C=C2/CCC[C@]3(C)[C@@H]([C@H](C)Cc4cccc(O)c4)CC[C@@H]23)C[C@@H](O)C[C@@H]1O
Asked: Please indicate which has the smaller reported RCI: A , or B . Please identify the chosen entry by its label.
Given back: B
